Target: SARS-CoV-2 spike receptor-binding domain (SARS-CoV-2, UniProt P0DTC2 319-541)
Test: mAb table, Specificity column (recombinant IgG1; ELISA)
assayReadout: binding result

S564-138 (antibody, V domains shown, recombinant human IgG1) VH: QVLLVQSGAEVKKPGASVKVSCKASGYTFTGYYLHWVRQAPGQGLEWMGWINPISGGTNYAQNFQDRVTMTRDTSIITAYMELSRLRSDDTAVYYCARLAYYYDSSAYRGAFDIWGQGTMVTVSS VL: QSALTQPASVSGSPGQSITISCTGTSSDVGGYNYVSWYQQHPGKAPKLMIYEVSNRPSGVSDRFSGSKSGNTASLTISGLQAEDEADYYCSSYTSSSTYVFGTGTKVTVL	binds
